Target: Glutamate receptor 2 (Rattus norvegicus)
Sequence (P19491 whole entry): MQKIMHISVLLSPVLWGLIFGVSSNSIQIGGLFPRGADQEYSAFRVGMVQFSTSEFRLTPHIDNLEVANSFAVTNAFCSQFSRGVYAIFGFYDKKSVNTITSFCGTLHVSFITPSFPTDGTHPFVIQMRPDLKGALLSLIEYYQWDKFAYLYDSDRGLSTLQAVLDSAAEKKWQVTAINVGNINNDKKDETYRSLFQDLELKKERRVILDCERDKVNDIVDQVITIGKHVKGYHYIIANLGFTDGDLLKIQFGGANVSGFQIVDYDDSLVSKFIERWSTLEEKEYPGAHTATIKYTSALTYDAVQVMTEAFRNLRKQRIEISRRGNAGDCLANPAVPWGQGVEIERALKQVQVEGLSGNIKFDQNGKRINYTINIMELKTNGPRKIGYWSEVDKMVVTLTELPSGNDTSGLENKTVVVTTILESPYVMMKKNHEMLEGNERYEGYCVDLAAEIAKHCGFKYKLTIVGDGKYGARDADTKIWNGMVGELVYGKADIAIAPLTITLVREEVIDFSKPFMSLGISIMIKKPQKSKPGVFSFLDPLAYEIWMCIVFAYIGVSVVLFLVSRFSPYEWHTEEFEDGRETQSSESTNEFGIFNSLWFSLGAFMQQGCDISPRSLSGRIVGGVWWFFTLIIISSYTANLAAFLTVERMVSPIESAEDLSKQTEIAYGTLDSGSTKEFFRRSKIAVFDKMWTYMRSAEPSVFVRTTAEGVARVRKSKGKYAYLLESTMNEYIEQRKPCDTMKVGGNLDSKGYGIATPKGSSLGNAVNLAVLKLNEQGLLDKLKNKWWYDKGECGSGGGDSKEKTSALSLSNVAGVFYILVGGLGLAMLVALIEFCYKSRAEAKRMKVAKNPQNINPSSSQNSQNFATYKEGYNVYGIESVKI
Test: Positive allosteric modulation of GluA2 receptor in rat embryonic cortex neuron assessed as increase of AMPA-induced membrane depolarization by FLIPR assay
Property Label: EC50 (µM)
Note: unit µM is implicit; provide only the numeric part.

For the compound O=[N+]([O-])c1ccc2c(c1)S(=O)(=O)NCN2C1CC1 , give its reported EC50. 22.5
